- Assay: 2-week rat toxicology and toxicokinetic study
- Format: in vivo
- Condition Context: female, Crl:CD (SD)IGS BR, rat, in vivo, po, 10 mg/kg/day, females, 10 mg/kg/day, Day 13; read-out: AUC0-24
Reported Endpoint: AUC(0-t)

Clc1ccc([C@]23CNC[C@H]2C3)cc1Cl: 8190 ng·h/mL

###

- Assay: 12-month dog toxicity and toxicokinetic study
- Assay type: in vivo
- Condition Context: male, beagle, dog, plasma, po, 6 mg/kg/day, males, 6 mg/kg/day, Day 0
Reported Endpoint: Tmax

Clc1ccc([C@]23CNC[C@H]2C3)cc1Cl: 1.3 h

###

- Assay: Single dose 300 mg / 450 mg pharmacokinetic, safety and tolerability study in healthy male and female subjects
- Condition Context: both, human, plasma, po, 300 mg
Reported Endpoint: concentration at 18 h (µg/mL)

O=C1NCC2(c3ccc(Cl)c(Cl)c3)CC12 (stereo not shown) [EB-10101]: 1.39

###

- Assay: Single rising oral dose (10-150 mg IR) safety, tolerance and pharmacokinetics in healthy male volunteers
- Assay type: in vivo, human
- Condition Context: male, human, plasma, oral, 100 mg, Median; read-out: AUC0-t
Reported Endpoint: AUC(0-t) (ng·h/mL)

Clc1ccc([C@]23CNC[C@H]2C3)cc1Cl [amitifadine]: 4730

###

- Assay: 13-week rat toxicity and toxicokinetic study
- Assay type: in vivo
- Condition Context: female, Crl:CD(SD)IGS BR, rat, in vivo, po, 60 mg/kg/day, females, 60 mg/kg/day, Day 87; read-out: AUC0-24
Reported Endpoint: AUC(0-t) (ng·h/mL)

Clc1ccc([C@]23CNC[C@H]2C3)cc1Cl: 88100

###

- Assay: Single rising oral dose (10-150 mg IR) safety, tolerance and pharmacokinetics in healthy male volunteers
- Assay type: in vivo, human
- Condition Context: human, plasma, oral, 25 mg, individual subject; read-out: MRT0-∞
Reported Endpoint: MRT inf (h)

Clc1ccc([C@]23CNC[C@H]2C3)cc1Cl: 4.81

###

- Assay: Single dose 300 mg / 450 mg pharmacokinetic, safety and tolerability study in healthy male and female subjects
- Condition Context: male, human, plasma, po, 450 mg
Reported Endpoint: concentration at 18 h (ng/mL)

O=C1NCC2(c3ccc(Cl)c(Cl)c3)CC12 (stereo not shown): 1880

###

- Assay: Single dose 300 mg / 450 mg pharmacokinetic, safety and tolerability study in healthy male and female subjects
- Condition Context: both, human, plasma, po, 450 mg
Reported Endpoint: concentration at 12 h (ng/mL)

O=C1NCC2(c3ccc(Cl)c(Cl)c3)CC12 (stereo not shown): 2620

###

- Assay: Multiple-dose safety and PK study 25 mg BID and 50 mg BID for 10 days
- Assay type: in vivo, human
- Condition Context: male, human, in vivo, 50 mg, 50 mg BID; Day 10; healthy male subjects; mean (SD)
- Excerpt: Twenty-two male subjects were randomized for the study and received study medication.
Reported Endpoint: half-life (h)

Clc1ccc([C@]23CNC[C@H]2C3)cc1Cl: 2.97

###

- Assay: 13-week dog toxicity and toxicokinetic study
- Assay type: in vivo
- Condition Context: female, beagle, dog, in vivo, po, 2 mg/kg/day, females, 2 mg/kg/day, Day 0; read-out: AUC0-24
Reported Endpoint: AUC(0-t) (ng·h/mL)

Clc1ccc([C@]23CNC[C@H]2C3)cc1Cl: 1480

###

- Assay: 13-week dog toxicity and toxicokinetic study
- Assay type: in vivo
- Condition Context: male, beagle, dog, in vivo, po, 20 mg/kg/day, males, 20 mg/kg/day, Day 0; read-out: AUC0-24
Reported Endpoint: AUC(0-t) (ng·h/mL)

Clc1ccc([C@]23CNC[C@H]2C3)cc1Cl: 47800

###

- Assay: 26-week rat toxicity and toxicokinetic study
- Format: in vivo
- Condition Context: male, Crl:CD(SD)IGS BR, rat, in vivo, po, […], males, […], Day 177
Reported Endpoint: Tmax (h)

Clc1ccc([C@]23CNC[C@H]2C3)cc1Cl: 1

###

- Assay: Single dose 300 mg / 450 mg pharmacokinetic, safety and tolerability study in healthy male and female subjects
- Condition Context: both, human, plasma, po, 450 mg
Reported Endpoint: concentration at 3 h (ng/mL)

O=C1NCC2(c3ccc(Cl)c(Cl)c3)CC12 (stereo not shown): 1820

###

- Assay: 2-week dog toxicity and toxicokinetic study
- Type: in vivo
- Condition Context: male, beagle, in vivo, po, 5 mg/kg/day, males, 5 mg/kg/day, Day 0
Reported Endpoint: Cmax (ng/mL)

Clc1ccc([C@]23CNC[C@H]2C3)cc1Cl: 1580

###

- Assay: 13-week dog toxicity and toxicokinetic study
- Format: in vivo
- Condition Context: female, beagle, dog, in vivo, po, 6 mg/kg/day, females, 6 mg/kg/day, Day 0; read-out: AUC0-24
Reported Endpoint: AUC(0-t) (µg·h/mL)

Clc1ccc([C@]23CNC[C@H]2C3)cc1Cl: 13.6

###

- Assay: Single dose 300 mg / 450 mg pharmacokinetic, safety and tolerability study in healthy male and female subjects
- Condition Context: both, human, plasma, po, 300 mg
Reported Endpoint: concentration at 1 h

O=C1NCC2(c3ccc(Cl)c(Cl)c3)CC12 (stereo not shown): 296 ng/mL

###

- Assay: Single dose 300 mg / 450 mg pharmacokinetic, safety and tolerability study in healthy male and female subjects
- Condition Context: both, human, plasma, oral, 450 mg, elimination half-life, 300 and 450 mg
Reported Endpoint: half-life

Clc1ccc([C@]23CNC[C@H]2C3)cc1Cl: ~4 h

###

- Assay: 13-week mouse toxicity and toxicokinetic study
- Condition Context: male, Crl:CD-1(ICR) BR, in vivo, po, 30 mg/kg/day, Tmax
Reported Endpoint: Tmax

Clc1ccc([C@]23CNC[C@H]2C3)cc1Cl: 1 h

###

- Assay: Single rising oral dose (10-150 mg IR) safety, tolerance and pharmacokinetics in healthy male volunteers
- Type: in vivo, human
- Condition Context: male, human, plasma, oral, 25 mg, Mean (n = 7); read-out: MRT0-∞
Reported Endpoint: MRT inf (h)

Clc1ccc([C@]23CNC[C@H]2C3)cc1Cl [amitifadine]: 4.83

###

- Assay: Single rising oral dose (10-150 mg IR) safety, tolerance and pharmacokinetics in healthy male volunteers
- Format: in vivo, human
- Condition Context: male, human, plasma, oral, 150 mg, Mean (n = 7); read-out: MRT0-∞
Reported Endpoint: MRT inf (h)

Clc1ccc([C@]23CNC[C@H]2C3)cc1Cl: 6.04

###

- Assay: Rabbit developmental toxicity study with toxicokinetics
- Condition Context: female, New Zealand white, in vivo, po, pregnant rabbits, 3 mg/kg/day, GD 20
Reported Endpoint: Cmax (ng/mL)

Clc1ccc([C@]23CNC[C@H]2C3)cc1Cl: 309

###

- Assay: Single-dose (25 mg) food effect crossover study in 24 men (DOV 947-003)
- Format: in vivo, human
- Condition Context: male, human, in vivo, po, single oral dose 25 mg, Fasted, 24 healthy male subjects
Reported Endpoint: half-life (h)

Clc1ccc([C@]23CNC[C@H]2C3)cc1Cl [amitifadine]: 3.42

###

- Assay: Single dose 300 mg / 450 mg pharmacokinetic, safety and tolerability study in healthy male and female subjects
- Condition Context: female, human, plasma, po, 450 mg
Reported Endpoint: concentration at 12 h (ng/mL)

O=C1NCC2(c3ccc(Cl)c(Cl)c3)CC12 (stereo not shown): 2930

###

- Assay: 12-month dog toxicity and toxicokinetic study
- Format: in vivo
- Condition Context: female, beagle, dog, plasma, po, 2 mg/kg/day, females, 2 mg/kg/day, Day 358
Reported Endpoint: Cmax (ng/mL)

Clc1ccc([C@]23CNC[C@H]2C3)cc1Cl: 1150

###

- Assay: Single dose 300 mg / 450 mg pharmacokinetic, safety and tolerability study in healthy male and female subjects
- Condition Context: female, human, plasma, po, 300 mg
Reported Endpoint: concentration at 4 h (ng/mL)

O=C1NCC2(c3ccc(Cl)c(Cl)c3)CC12 (stereo not shown) [EB-10101]: 1600

###

- Assay: 2-week dog toxicity and toxicokinetic study
- Type: in vivo
- Condition Context: female, beagle, in vivo, po, 20 mg/kg/day, females, 20 mg/kg/day, Day 0, read-out: AUC0-24
Reported Endpoint: AUC(0-t) (ng·h/mL)

Clc1ccc([C@]23CNC[C@H]2C3)cc1Cl: 57100

###

- Assay: 13-week rat toxicity and toxicokinetic study
- Type: in vivo
- Condition Context: female, Crl:CD(SD)IGS BR, rat, in vivo, oral, 10 mg/kg/day, females, 10 mg/kg/day, Day 87; read-out: AUC0-24
Reported Endpoint: AUC(0-t) (ng·h/mL)

Clc1ccc([C@]23CNC[C@H]2C3)cc1Cl: 14400

###

- Assay: Single rising oral dose (10-150 mg IR) safety, tolerance and pharmacokinetics in healthy male volunteers
- Type: in vivo, human
- Condition Context: male, human, plasma, oral, 10 mg, Geometric Mean; read-out: MRT0-∞
Reported Endpoint: MRT inf (h)

Clc1ccc([C@]23CNC[C@H]2C3)cc1Cl: 5.21
